Assay: 1-octanol-phosphate buffer partition coefficient, log D of the compound at pH 7.4 by UPLC/MS/MS analysis
resultType: logD
Form rule: numeric answer, no unit written next to it.

Ask: If you can, please state the reported logD value of CC1(C)CCc2c(C(=O)Nc3cnn([C@H](c4ccccc4)C4CC[S+]([O-])CC4)c3)n[nH]c2C1 (stereo partly drawn) .
Reply: 3.6

Ask: Reported logD, compound C[C@@]12Cc3[nH]nc(C(=O)Nc4cnn([C@H](c5ccccc5)C5CCS(=O)(=O)CC5)c4)c3C[C@@H]1C2 : ____
Reply: 3.5

Ask: For the compound C[C@@]12Cc3[nH]nc(C(=O)Nc4cnn([C@H](c5ccccc5)[C@H]5CCCCS5(=O)=O)c4)c3C[C@@H]1C2(F)F , what logD is on record?
Reply: 2.8

These data points were gathered from ChEMBL document CHEMBL3425442.
